Just for reference, ChEMBL document CHEMBL3352630 is where these values come from.

system: MCF7; test: Growth inhibition of human MCF7 cells after 72 hrs by MTT assay; assay type: functional, cell-based; settings: MCF7, 72 h
pIC50: −log10 of the molar value.
propertyName: pIC50

C#C[C@@H](O)/C=C/CCCCCCCCC/C=C\CCCC/C=C\CCCC/C=C\CCCCCCCCCCCCC/C=C/[C@H](O)C#C	4.64
C#C[C@@H](O)/C=C/CCCCCCCCCCCCC/C=C\CCCC/C=C\CCCC/C=C\C/C=C\CCCCCC(O)/C=C/[C@H](O)C#C (some centres undefined)	4.82

1. C#CC(=O)/C=C/CCCCCCCCC/C=C\CCCC/C=C\CCCC/C=C\CCCCCCCCCCCCC/C=C/C(=O)C#C
2. COc1cc([C@@H]2c3cc4c(cc3[C@@H](O[C@@H]3O[C@@H]5CO[C@@H](C)O[C@H]5[C@H](O)[C@H]3O)[C@H]3COC(=O)[C@H]23)OCO4)cc(OC)c1O [ETOPOSIDE]
Between 1 and 2 , which one shows the smaller pIC50 number? API: response body contains the label of the selected item.
1

* * *

test system: A549; assay: Growth inhibition of human A549 cells after 72 hrs by MTT assay; assay type: functional, cell-based; conditions: A549, 72 h
propertyName: IC50 (µM)

C#C[C@@H](O)/C=C/CCCCCCCCCCCCC/C=C\CCCC/C=C\CCCC/C=C\C/C=C\CCCCCC(O)/C=C/[C@H](O)C#C (some centres undefined)	31
C#C[C@@H](O)/C=C/CCCCCCCCC/C=C\CCCC/C=C\CCCC/C=C\CCCCCCCCCCCCC/C=C/[C@H](O)C#C	28

P. COc1cc([C@@H]2c3cc4c(cc3[C@@H](O[C@@H]3O[C@@H]5CO[C@@H](C)O[C@H]5[C@H](O)[C@H]3O)[C@H]3COC(=O)[C@H]23)OCO4)cc(OC)c1O [ETOPOSIDE]
Q. C#CC(=O)/C=C/CCCCCCCCC/C=C\CCCC/C=C\CCCC/C=C\CCCCCCCCCCCCC/C=C/C(=O)C#C
Between P and Q , which one shows the smaller IC50 number? API: response body contains the label of the selected item.
P
